Recorded values, source patent US9156853B2.

Each entry below carries its recorded half-life.
- assaySummary: Pharmacokinetic analysis, half-life in rat
- Assay type: in vivo
- conditions: rat, in vivo; read-out: T½ (rat) h

# compound, half-life
rows = [
    ("NC1(c2ccc(-c3oc4ncn(CC(F)(F)F)c(=O)c4c3-c3ccccc3)cc2)CCC1 [Compound A, reference compound]", "> 1440 min"),
    ("Cn1c(-c2ccc([C@]3(N)C[C@](C)(O)C3)cc2)c(-c2ccccc2)c2c(=O)n(CC(F)(F)F)cnc21 [Compound 6]", "≤ 600 min"),
    ("C[C@]1(O)C[C@@](N)(c2ccc(-c3sc4ncn(CC(F)(F)F)c(=O)c4c3-c3ccccc3)cc2)C1 [Compound 5]", "≤ 600 min"),
    ("C[C@]1(O)C[C@](N)(c2ccc(-c3oc4ncn(CC(F)(F)F)c(=O)c4c3-c3ccccc3)cc2)C1 [Compound 1]", "≤ 600 min"),
]
